Cited source: ChEMBL document CHEMBL1124766

Test system: Rattus norvegicus
assay: Evaluated for the effects on the gastric emptying rates of phenol red semisolid meal through the stomach in rats, at a dose of 5.0 mg/kg administered perorally
Assay type: functional
condition: route oral
measured_attribute: GE (%)

[[record]]
compound = "CCN(CC)CCNC(=O)c1cc(Cl)c(N)cc1OC [METOCLOPRAMIDE]"
reported = 26

[[record]]
compound = "COc1cc(N)c(Cl)cc1C(=O)NC1CCN(CCCOc2ccc(F)cc2)CC1OC (centres undefined) [CISAPRIDE]"
reported = 50

[[record]]
compound = "COc1cc(N(C)C)c(Cl)cc1C(=O)NCC1CN(Cc2ccccc2)CCO1.O=C(O)/C=C/C(=O)O (centres undefined)"
reported = 47

[[record]]
compound = "CCOc1cc(N)c(Cl)cc1C(=O)NCC1CN(Cc2ccccc2)CCO1.O (centres undefined)"
reported = 56


* * *

Test system: Rattus norvegicus
assay: Evaluated for the effects on the gastric emptying rates of phenol red semisolid meal through the stomach in rats, at a dose of 2.0 mg/Kg administered perorally.
Type: functional
measured_attribute: GE (%)

[[record]]
molecule = "COc1cc(Cl)ccc1C(=O)NCC1CN(Cc2ccccc2)CCO1.Cl (stereo not given)"
reported = 23

[[record]]
molecule = "COc1cc(N)c(Br)cc1C(=O)NCC1CN(Cc2ccccc2)CCO1 (stereo not given)"
reported = 10

[[record]]
molecule = "COc1c(Cl)cc(Cl)c(OC)c1C(=O)NCC1CN(Cc2ccccc2)CCO1 (stereo not given)"
reported = 4

[[record]]
molecule = "CC(=O)Nc1cc(O)c(C(=O)NCC2CN(Cc3ccccc3)CCO2)cc1Cl (stereo not given)"
reported = 11

[[record]]
molecule = "COc1cc(N)c([N+](=O)[O-])cc1C(=O)NCC1CN(Cc2ccccc2)CCO1.O (stereo not given)"
reported = 14


* * *

Test system: Rattus norvegicus
assay: Evaluated for the effects on the gastric emptying rates of phenol red semisolid meal through the stomach in rats, at a dose of 2.0 mg/Kg administered perorally.
Format: functional
measured_attribute: GE (%)

[[record]]
compound = "COc1cc(NC(C)=O)ccc1C(=O)NCC1CN(Cc2ccccc2)CCO1.O (stereo not drawn)"
measured_attribute = "GE"
unit_symbol = "%"
reported = 24

[[record]]
compound = "Nc1ccc(C(=O)NCC2CN(Cc3ccccc3)CCO2)cc1Cl.O=C(O)C(=O)O (stereo not drawn)"
measured_attribute = "GE"
unit_symbol = "%"
reported = 30

[[record]]
compound = "COc1cc(N)c(Cl)cc1C(=O)NCCC1CN(Cc2ccccc2)CCO1.O=C(O)/C=C/C(=O)O (stereo not drawn)"
measured_attribute = "GE"
unit_symbol = "%"
reported = 35

[[record]]
compound = "COc1cc(N)c(Cl)cc1C(=O)NCC1CN(Cc2ccccc2)CCO1 (stereo not drawn)"
measured_attribute = "GE"
unit_symbol = "%"
reported = 26

[[record]]
compound = "CCSc1ccc(S(N)(=O)=O)cc1C(=O)NCC1CN(Cc2ccccc2)CCO1 (stereo not drawn)"
measured_attribute = "GE"
unit_symbol = "%"
reported = 27

[[record]]
compound = "O=C(NCC1CN(Cc2ccccc2)CCO1)c1c(F)c(F)c(F)c(F)c1F.O=C(O)C(=O)O (stereo not drawn)"
measured_attribute = "GE"
unit_symbol = "%"
reported = 9

[[record]]
compound = "CCOc1cc(N)c(Cl)cc1C(=O)NCCC1CN(Cc2ccccc2)CCO1 (stereo not drawn)"
measured_attribute = "GE"
unit_symbol = "%"
reported = 45

[[record]]
compound = "COc1ccccc1C(=O)NCC1CN(Cc2ccccc2)CCO1.O=C(O)/C=C/C(=O)O (stereo not drawn)"
measured_attribute = "GE"
unit_symbol = "%"
reported = 17

[[record]]
compound = "COc1cc(N)c(Cl)cc1C(=O)N(C)CC1CN(Cc2ccccc2)CCO1.O=C(O)/C=C/C(=O)O (stereo not drawn)"
measured_attribute = "GE"
unit_symbol = "%"
reported = 15

[[record]]
compound = "CN(C)c1c(Cl)cc(C(=O)NCC2CN(Cc3ccccc3)CCO2)c(O)c1Cl.O=C(O)C(=O)O (stereo not drawn)"
measured_attribute = "GE"
unit_symbol = "%"
reported = 14

[[record]]
compound = "CN(C)c1cc(O)c(C(=O)NCC2CN(Cc3ccccc3)CCO2)cc1Cl.O=C(O)C(=O)O (stereo not drawn)"
measured_attribute = "GE"
unit_symbol = "%"
reported = 27

[[record]]
compound = "COc1cc(N)ccc1C(=O)NCC1CN(Cc2ccccc2)CCO1 (stereo not drawn)"
measured_attribute = "GE"
unit_symbol = "%"
reported = 11

[[record]]
compound = "COc1cc(C(=O)NCC2CN(Cc3ccccc3)CCO2)cc(OC)c1OC.O=C(O)C(=O)O (stereo not drawn)"
measured_attribute = "GE"
unit_symbol = "%"
reported = 11

